targetDesc: Bcat-Halo (beta-catenin HaloTag construct expressed in HEK293 cells) (UniProt P35222)
Sequence (P35222 whole entry): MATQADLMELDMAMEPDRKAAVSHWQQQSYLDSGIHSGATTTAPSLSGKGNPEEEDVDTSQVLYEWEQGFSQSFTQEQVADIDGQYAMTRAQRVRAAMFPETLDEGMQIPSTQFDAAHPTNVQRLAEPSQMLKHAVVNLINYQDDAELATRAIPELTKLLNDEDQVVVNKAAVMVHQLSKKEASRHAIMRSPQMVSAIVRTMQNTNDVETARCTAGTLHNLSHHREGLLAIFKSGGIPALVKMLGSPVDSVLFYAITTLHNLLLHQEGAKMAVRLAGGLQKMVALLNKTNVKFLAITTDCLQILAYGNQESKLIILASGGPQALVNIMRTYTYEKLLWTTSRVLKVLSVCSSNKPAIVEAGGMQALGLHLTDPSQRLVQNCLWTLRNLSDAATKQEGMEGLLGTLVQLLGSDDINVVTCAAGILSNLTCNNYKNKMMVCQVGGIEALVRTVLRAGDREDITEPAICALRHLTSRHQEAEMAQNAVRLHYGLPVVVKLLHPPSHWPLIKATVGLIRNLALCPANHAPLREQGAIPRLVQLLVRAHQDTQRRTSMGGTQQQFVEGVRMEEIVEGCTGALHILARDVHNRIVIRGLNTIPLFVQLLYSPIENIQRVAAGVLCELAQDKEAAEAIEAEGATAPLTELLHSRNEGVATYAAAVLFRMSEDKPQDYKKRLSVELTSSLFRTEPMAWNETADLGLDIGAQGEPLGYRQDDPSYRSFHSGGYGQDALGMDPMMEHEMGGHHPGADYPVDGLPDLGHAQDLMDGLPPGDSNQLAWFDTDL
experimentalProtocol: NanoBRET Abs IC50 in HEK293 cells; B-cat-Halo with competitor TCF4-Luc
pIC50: −log10 of the molar value. Starred links: 1 amine or outer side, 2 acyl side, 3 side chain; linkers in the order of their positions; H or OH if unused. Positions of bridges follow the written chain, without caps; N, C: chain ends. Non-standard residues stand in square brackets, D forms with d. Primed or numbered codes have the meaning given here. PyrS2″ = (S)-3-amino-1-((pent-4-en-1-yloxy)carbonyl)pyrrolidine-3-carboxylic acid (stapling residue), C=CCCCOC(=O)N1CC[C@@](N[*:1])(C(=O)[*:2])C1; PyrS2 = (S)-3-amino-1-((pent-4-en-1-yloxy)carbonyl)pyrrolidine-3-carboxylic acid, C=CCCCOC(=O)N1CC[C@@](N[*:1])(C(=O)[*:2])C1; B5(12) = 2-amino-2-(pent-4-en-1-yl)hept-6-enoic acid (two olefin side chains), C=CCCCC(CCCC=C)(N[*:1])C(=O)[*:2]; B5(19) = 2-amino-2-(pent-4-en-1-yl)hept-6-enoic acid (bis(4-pentenyl)glycine), C=CCCCC(CCCC=C)(N[*:1])C(=O)[*:2]; Phe(2-CF3) = N[C@@H](Cc1ccccc1C(F)(F)F)C(=O)O; Bta = N[C@@H](Cc1csc2ccccc12)C(=O)O; αAllylPro = C=CC[C@@]1(C(=O)O)CCCN1; tBuAla = CC(C)(C)C[C@H](N)C(=O)O; 3Thi = N[C@@H](Cc1ccsc1)C(=O)O; S8 = C=CCCCCCC[C@](C)(N)C(=O)O; hSer = N[C@@H](CCO)C(=O)O; Nle = CCCC[C@H](N)C(=O)O
measure: pIC50

{"binder": "Ac-[αAllylPro]D[Nle][B5(19)]DDAAF[Nle][PyrS2][3Thi][Bta]Q-NH2 (staple 1-4, 4-11) [I-1401]", "pIC50": 4.67}
{"binder": "Ac-[αAllylPro]DL[B5(12)]DDAAF[Nle][PyrS2″]F[Bta]Q-NH2 (staple 1-4, 4-11) [I-1404]", "pIC50": 4.43}
{"binder": "Ac-[αAllylPro]D[Nle][B5(12)]DDAAFL[PyrS2″][3Thi][Bta]L-NH2 (staple 1-4, 4-11; also: staple isomer, earlier eluting HPLC peak) [I-1411]", "pIC50": 4.33}

(a) Ac-[αAllylPro]D[Nle][B5(12)]DDAAF[Nle][PyrS2″]F[Bta]Q-NH2 (staple 1-4, 4-11) [I-1405]
(b) Ac-[αAllylPro]D[tBuAla][B5(19)]DDAAF[hSer][S8][Phe(2-CF3)][Bta]Q-NH2 (staple 1-4, 4-11) [I-1397]
IN: Given a and given b , which shows the smaller recorded pIC50? Pick one and reply with its label.
OUT: a
(a: 4.40, b: 4.79)
